test system: 885512-296-R-J2-PDC complex spheroid viability; assay: Anticancer human tumor 885512-296-R-J2-PDC patient-derived breast carcinoma cell line growth inhibition [GQUAD]; conditions: second compound 0.316 µM; first compound 0.1 µM; active = viability on the fitted dose curve at most 10% of control; inactive = the rest;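 note: spheroids exposed to the compounds for one week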
Give one outcome, nothing more. List: y = active, n = inactive

Problem: Any idea what this test logged for CC1COCCN1c1cc(C2(O)CC3CCC(C2)O3)c2cnn(-c3ccn[nH]3)c2n1 (stereo not given) + CN(C)c1ccc(Nc2c3ccc(NC(=O)CCN4CCCC4)cc3nc3cc(NC(=O)CCN4CCCC4)ccc23)cc1 ?
Result: y

Problem: Recorded call for CC1COCCN1c1cc(C2(S(C)(=N)=O)CC2)nc(-c2ccnc3[nH]ccc23)n1 (stereo not given) + Cc1[nH]c2ccc(F)cc2c1-c1nc2c3cccnc3c3ncccc3c2[nH]1 ?
Result: n

Problem: Could you kindly confirm the outcome this assay logged for O=c1[nH]cc(F)c(=O)[nH]1 + Cc1cnc(CNC(=O)c2c(=O)c3ccc(N4CCCN(C)CC4)nc3n3c2sc2ccccc23)cn1 ?
Result: n

Problem: What was the test verdict on COc1cc(C2c3cc4c(cc3C(OC3OC5COC(C)OC5C(O)C3O)C3COC(=O)C23)OCO4)cc(OC)c1O (stereo not given) + CN(C)c1ccc(Nc2c3ccc(NC(=O)CCN4CCCC4)cc3nc3cc(NC(=O)CCN4CCCC4)ccc23)cc1 ?
Result: n

Problem: Answer briefly: the call reported for Nc1ccn(C2OC(CO)C(O)C2(F)F)c(=O)n1 (stereo not given) + Cc1cnc(CNC(=O)c2c(=O)c3ccc(N4CCCN(C)CC4)nc3n3c2sc2ccccc23)cn1 in this assay.
Result: y

Problem: Fill in: this test's call for COc1ccc([C@@H](O)c2cc(-c3ncnc4cc(N5CCOCC5)ccc34)c(F)cc2Cl)nn1 + CN(C)c1ccc(Nc2c3ccc(NC(=O)CCN4CCCC4)cc3nc3cc(NC(=O)CCN4CCCC4)ccc23)cc1 is ___
Result: n

Problem: Tell me the recorded outcome of this test for Nc1ccn(C2OC(CO)C(O)C2(F)F)c(=O)n1 (stereo not given) + CN(C)c1ccc(Nc2c3ccc(NC(=O)CCN4CCCC4)cc3nc3cc(NC(=O)CCN4CCCC4)ccc23)cc1 .
Result: y

Problem: # lookup: test call for O=C(c1cc(Cc2n[nH]c(=O)c3ccccc23)ccc1F)N1CCN(C(=O)C2CC2)CC1 + Cc1cnc(CNC(=O)c2c(=O)c3ccc(N4CCCN(C)CC4)nc3n3c2sc2ccccc23)cn1
Result: n

Problem: Can you look up the reported call for CC1COCCN1c1cc(-c2ccnn2C)c2ccnc(-c3ccn[nH]3)c2n1 (stereo not given) + CN(C)c1ccc(Nc2c3ccc(NC(=O)CCN4CCCC4)cc3nc3cc(NC(=O)CCN4CCCC4)ccc23)cc1 for me?
Result: y

Problem: Status in this test for CC(=O)O[C@H]1C(=O)[C@@]2(C)[C@H]([C@H](OC(=O)c3ccccc3)[C@]3(O)C[C@H](OC(=O)[C@H](O)[C@@H](NC(=O)c4ccccc4)c4ccccc4)C(C)=C1C3(C)C)[C@]1(OC(C)=O)CO[C@@H]1C[C@@H]2O + Cc1[nH]c2ccc(F)cc2c1-c1nc2c3cccnc3c3ncccc3c2[nH]1 ?
Result: n
